system: Plasmodium falciparum; test: Antimalarial activity against chloroquine-resistant Plasmodium falciparum K1 […]; type: functional, organism-based
readout-kind: IC50

In the examples that follow, each entry is paired with its recorded IC50.
- compound: "C1CCC2(CC1)COC1(OO2)C2CC3CC(C2)CC1C3 (stereo not given)"
  IC50: "0.054 µg/mL"
- compound: "C[C@@]1(c2ccccc2)OOC2(O1)C1CC3CC(C1)CC2C3 (stereo not given in full)"
  IC50: "0.0029 µg/mL"
- compound: "C[C@]1(c2ccccc2)COC2(OO1)C1CC3CC(C1)CC2C3 (stereo not given in full)"
  IC50: "0.019 µg/mL"
- compound: "c1ccc([C@H]2COC3(OO2)C2CC4CC(C2)CC3C4)cc1 (stereo not given in full)"
  IC50: "0.0091 µg/mL"

Now for another entry.
So for c1ccc([C@@H]2OOC3(O2)C2CC4CC(C2)CC3C4)cc1 (stereo not given in full) , the logged IC50 turned out to be 0.4 µg/mL

###

test system: Plasmodium falciparum (NF54); assay: Antimalarial activity against chloroquine-sensitive Plasmodium falciparum NF54
In plain terms, low IC50, meaning strictly below 0.003 µg/mL, gives True, and everything else gives False.

Worked cases, answers included:
- compound: "C[C@]1(c2ccccc2)COC2(OO1)C1CC3CC(C1)CC2C3 (some centres undefined)"
  class-label: "False"
- compound: "c1ccc([C@H]2CCOC3(OO2)C2CC4CC(C2)CC3C4)cc1 (some centres undefined)"
  class-label: "False"
- compound: "C1CCC2(CC1)COC1(OO2)C2CC3CC(C2)CC1C3 (centres undefined)"
  class-label: "False"

Exercise: Does the reported IC50 of C[C@@]1(c2ccccc2)OOC2(O1)C1CC3CC(C1)CC2C3 (some centres undefined) stay below 0.003 µg/mL?
Key: False

Exercise: Please indicate whether the reported IC50 of C1CCC2(CC1)OOC1(O2)C2CC3CC(C2)CC1C3 (centres undefined) is strictly below 0.003 µg/mL.
Key: True

Exercise: Find out if reported IC50 for c1ccc([C@@H]2OOC3(O2)C2CC4CC(C2)CC3C4)cc1 (some centres undefined) is less than 0.003 µg/mL
Key: False

Exercise: Is 0.003 µg/mL strictly greater than the compound's reported IC50? compound: `C1CC[C@]2(CC1)CCO[C@]1(OO2)C2CC3CC(C2)CC1C3`
Key: False

Exercise: Does c1ccc([C@H]2COC3(OO2)C2CC4CC(C2)CC3C4)cc1 (some centres undefined) have IC50 strictly under 0.003 µg/mL?
Key: False

Exercise: Is it true that IC50 reported for `C[C@@H]1CC[C@H]2[C@@H](C)C(=O)O[C@@H]3O[C@@]4(C)CC[C@@H]1[C@]32OO4` is less than 0.003 µg/mL?
Key: True

###

For each record, write down the corresponding Activity.
test: Induction of heme alkylation measured within 30 seconds by visible spectrophotometry; parameters: concentration or dose not given beside the values
Numbers only, in %.

- compound: "c1ccc([C@@H]2OOC3(O2)C2CC4CC(C2)CC3C4)cc1 (stereo partly drawn)"
  Activity / %: 50
- compound: "C[C@@]1(c2ccccc2)OOC2(O1)C1CC3CC(C1)CC2C3 (stereo partly drawn)"
  Activity / %: 67
- compound: "C1CCC2(CC1)COC1(OO2)C2CC3CC(C2)CC1C3 (stereo not drawn)"
  Activity / %: 45
- compound: "c1ccc([C@H]2CCOC3(OO2)C2CC4CC(C2)CC3C4)cc1 (stereo partly drawn)"
  Activity / %: 1
- compound: "C1CCC2(CC1)OOC1(O2)C2CC3CC(C2)CC1C3 (stereo not drawn)"
  Activity / %: 86

For each of the items listed, what is its Activity?
1. C1CC[C@]2(CC1)CCO[C@]1(OO2)C2CC3CC(C2)CC1C3
2. CC(C)(N)CNC(=O)C[C@H]1CC[C@]2(CC1)OO[C@]1(O2)C2CC3CC(C2)CC1C3
3. c1ccc([C@H]2COC3(OO2)C2CC4CC(C2)CC3C4)cc1 (stereo partly drawn)

Key:
25
83
55
